- target.under.test: Transient receptor potential cation channel subfamily V member 1 (Homo sapiens)
- Sequence (Q8NER1 whole entry): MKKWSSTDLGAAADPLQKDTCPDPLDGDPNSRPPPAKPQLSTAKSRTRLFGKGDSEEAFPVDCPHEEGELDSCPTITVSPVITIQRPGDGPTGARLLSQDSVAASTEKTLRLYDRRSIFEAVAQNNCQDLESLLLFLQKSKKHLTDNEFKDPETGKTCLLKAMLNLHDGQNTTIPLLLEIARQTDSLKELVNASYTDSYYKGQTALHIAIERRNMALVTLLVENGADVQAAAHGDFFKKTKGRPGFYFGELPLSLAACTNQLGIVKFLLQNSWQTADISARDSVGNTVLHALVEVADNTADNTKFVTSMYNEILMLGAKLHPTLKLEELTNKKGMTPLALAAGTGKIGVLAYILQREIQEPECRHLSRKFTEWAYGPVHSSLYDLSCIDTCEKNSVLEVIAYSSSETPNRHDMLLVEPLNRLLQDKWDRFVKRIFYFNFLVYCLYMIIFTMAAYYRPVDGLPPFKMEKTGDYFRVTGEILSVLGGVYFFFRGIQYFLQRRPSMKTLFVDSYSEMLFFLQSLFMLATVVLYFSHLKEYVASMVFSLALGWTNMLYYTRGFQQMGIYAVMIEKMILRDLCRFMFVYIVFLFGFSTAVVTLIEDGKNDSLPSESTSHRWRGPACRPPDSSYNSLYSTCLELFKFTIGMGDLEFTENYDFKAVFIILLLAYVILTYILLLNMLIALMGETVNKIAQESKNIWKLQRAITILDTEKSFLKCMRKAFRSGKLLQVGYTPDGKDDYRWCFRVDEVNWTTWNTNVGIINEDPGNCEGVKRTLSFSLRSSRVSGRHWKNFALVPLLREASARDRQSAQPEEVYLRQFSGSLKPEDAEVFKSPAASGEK
- test.summary: Agonist activity at recombinant human TRPV1 expressed in HEK293 cells assessed as induction of Ca2+ levels by Fuo-4-AM based spectrofluorimetry
readout: EC50 (µM)
Numeric answer only, unit µM assumed.

Quick one: EC50 of NCCOB(c1ccccc1)c1ccccc1 ?
129

----------
- target.under.test: Transient receptor potential cation channel subfamily V member 2 (Rattus norvegicus, UniProt Q9WUD2)
- Sequence (Q9WUD2 whole entry): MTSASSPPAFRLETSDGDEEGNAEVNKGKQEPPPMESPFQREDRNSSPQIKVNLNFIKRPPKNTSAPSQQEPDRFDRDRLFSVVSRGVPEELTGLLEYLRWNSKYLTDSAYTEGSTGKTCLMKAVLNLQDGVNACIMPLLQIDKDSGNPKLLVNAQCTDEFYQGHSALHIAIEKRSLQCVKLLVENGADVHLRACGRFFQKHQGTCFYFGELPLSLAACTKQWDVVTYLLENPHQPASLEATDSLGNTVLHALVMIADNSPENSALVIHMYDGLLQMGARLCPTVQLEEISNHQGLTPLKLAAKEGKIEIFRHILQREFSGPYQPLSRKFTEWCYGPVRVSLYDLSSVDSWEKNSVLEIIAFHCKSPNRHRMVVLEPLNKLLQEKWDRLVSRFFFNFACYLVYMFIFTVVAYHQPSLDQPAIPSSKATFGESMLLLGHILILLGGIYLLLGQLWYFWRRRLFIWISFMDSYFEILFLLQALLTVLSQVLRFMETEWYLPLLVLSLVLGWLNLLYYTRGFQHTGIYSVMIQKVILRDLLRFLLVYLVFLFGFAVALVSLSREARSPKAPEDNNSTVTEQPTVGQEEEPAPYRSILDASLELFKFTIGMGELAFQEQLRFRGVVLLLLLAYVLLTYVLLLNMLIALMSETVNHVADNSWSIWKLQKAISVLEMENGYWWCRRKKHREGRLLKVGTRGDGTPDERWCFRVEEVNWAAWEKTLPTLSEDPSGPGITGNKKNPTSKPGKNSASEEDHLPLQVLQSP
- test.summary: Antagonist activity at recombinant rat TRPV2 expressed in HEK293 cells assessed as inhibition of CBD-induced Ca2+ levels preincubated for 5 mins followed by agonist addition by Fuo-4-AM based spectrofluorimetry
- Format: cell-based
Measured IC50 of individual entries
Numeric answer only, unit µM assumed.

Completed entries (count: 5):
Quick one: IC50 of CCCCCC[C@H](C/C=C\CCCCCCCC[Se]CCC(=O)NCc1ccc(O)c(OC)c1)OC(=O)Cc1ccccc1 ?
2.3

Quick one: IC50 of CCCCCCCC/C=C\CCCCCCCC(=O)NCCO [OLEOYLETHANOLAMIDE] ?
5.4

Quick one: IC50 of CCCCC/C=C\C/C=C\CCCCCCCC(=O)NCCO [LINOLEOYLETHANOLAMIDE] ?
0.65

Quick one: IC50 of CCCCC/C=C\C/C=C\CCCCCCCC(N)=O ?
1.2

Quick one: IC50 of CCCCC/C=C\C/C=C\CCCCCCCC[Se]CCC(=O)NCc1ccc(O)c(OC)c1 ?
2.3

Others:
Quick one: IC50 of CCCCC/C=C\C/C=C\C/C=C\C/C=C\CCCC(=O)NCCO [ANANDAMIDE] ?
0.96

Quick one: IC50 of CCCCCCCC/C=C\CCCCCCCC[Se]CCC(=O)NCc1ccc(O)c(OC)c1 ?
3.2

Quick one: IC50 of CCCCCCCC/C=C\CCCCCCCCCCCC(N)=O ?
7.1
